target: MARV GPddmuc (Marburg virus (MARV), UniProt P35253 19-648); experiment: native ELISA
observable: binding result

FVM33 (antibody, V domains shown) VH: QVQLVQSGAEVKRPGESLKISCKTSRYSFTSSWIGWVRQMPGKGLEWLGSIYPGDSDTRYNPSFQGHVTISADKSVTTTYLKWSSLKASDTATYYCVKGSETWGQGVLVTVSS VL: QPVLTQPASLSASPGASASLTCTFSGGINVAGYNILWYQQKAGSPPRYLLRYKSDSTKDQGSGVPSRFSGSKDASANTGILRISGLQSEDEADYYCAIGHSSGWIFGGGTRLTVL = no binding
FVM29 (antibody, V domains shown) VH: EVQLVQSGAEVKRPGESLKISCQTSGNSFTNNWISWVRQMPGKGLEWMGAIDPSDSETRYSPSFQGQVTISADKSINTAYLQWSSLKASDTATYYCVKGSETWGQGVLVTVSS VL: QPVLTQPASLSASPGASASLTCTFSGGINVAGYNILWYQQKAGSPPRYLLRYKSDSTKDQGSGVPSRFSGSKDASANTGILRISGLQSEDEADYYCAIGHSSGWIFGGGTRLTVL = no binding
